experiment: Inhibition of Rac1 GTPase in human MDA-MB-231 cells assessed as inhibition of cell proliferation treated for 72 hrs by MTT assay
Quantity Measured: IC50 (µM)
Answer format: numeric, µM implied, no suffix.

Record summary for `Cc1cc(C)cc(NC(=N)Nc2ccccc2C(F)(F)F)c1` : reported IC50 = 21
